Biological target: MSI-1 RRM1-2 (Homo sapiens, UniProt O43347 1-200)
Sequence (O43347 1-200): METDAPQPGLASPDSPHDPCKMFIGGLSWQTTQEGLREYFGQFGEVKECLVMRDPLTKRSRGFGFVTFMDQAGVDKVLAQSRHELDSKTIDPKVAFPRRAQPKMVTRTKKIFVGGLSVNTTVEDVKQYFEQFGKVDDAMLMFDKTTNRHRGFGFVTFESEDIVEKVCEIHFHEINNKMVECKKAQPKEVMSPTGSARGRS
Experiment: SPR; KD1 monovalent; bivalent part negligible; NMR: 50 mM Tris-HCl, 140 mM NaCl, 1 mM EDTA, 1 mM protease inhibitors, pH 7.2 (RRM1: pH 7.5), 298 K; fluorescence quenching: 50 mM Tris pH 7.2, 140 mM NaCl, 1 mM EDTA; SPR: biotinylated RNA immobilised, buffer not in the material
Conditions: protein: recombinant; label: biotin for SPR; single strand
Measure Name: Kd (nM)
Answer in nM, number only, no unit symbol.

Prompt: Please give the measured Kd for this binder: UUGUCAGUUACCCCUU (ssRNA) [oligo-L2.1]
Response: 218
